Origin of values: patent US7919508B2

Entries with reported pKi on human dopamine D2Long (D2L) receptors (Homo sapiens, UniProt P14416)
Sequence (P14416 whole entry): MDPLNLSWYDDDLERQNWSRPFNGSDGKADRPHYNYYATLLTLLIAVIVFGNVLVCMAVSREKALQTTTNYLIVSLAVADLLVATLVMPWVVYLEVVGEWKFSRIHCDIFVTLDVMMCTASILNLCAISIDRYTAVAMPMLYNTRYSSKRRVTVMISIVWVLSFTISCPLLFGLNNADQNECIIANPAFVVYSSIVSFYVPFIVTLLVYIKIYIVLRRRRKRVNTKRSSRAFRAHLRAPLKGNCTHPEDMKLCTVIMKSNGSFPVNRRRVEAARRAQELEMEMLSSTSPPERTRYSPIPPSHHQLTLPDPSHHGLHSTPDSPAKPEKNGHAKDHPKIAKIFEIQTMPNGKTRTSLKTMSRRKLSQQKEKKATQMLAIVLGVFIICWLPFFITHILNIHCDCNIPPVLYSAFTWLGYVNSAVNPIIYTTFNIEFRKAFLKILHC
pKi: −log10 of the molar value. Counter-ions that a name gives are not always drawn.

{"compound": "Cc1ccc2c(c1O)C[C@@H](C1CCN(Cc3cc(F)cc(C(F)(F)F)c3)CC1)O[C@H]2CN [Example 84, dihydrochloride]", "comparison-sign": "=", "pKi": 6.35}
{"compound": "Cc1ccc2c(c1O)C[C@@H](C1CCN(S(=O)(=O)C(C)C)CC1)O[C@H]2CN [Example 155, hydrochloride]", "comparison-sign": "≤", "pKi": 4.00}
{"compound": "Cc1ccc2c(c1O)C[C@@H](C1CCN(C(=O)N3CCCCC3)CC1)O[C@H]2CN [Example 138, hydrochloride]", "comparison-sign": "≤", "pKi": 4.00}
{"compound": "Cc1ccc2c(c1O)C[C@@H](C1CCN(Cc3ccc4ccccc4c3)CC1)O[C@H]2CN [Example 45, dihydrochloride]", "comparison-sign": "≤", "pKi": 5.00}
{"compound": "CNC[C@@H]1O[C@H](C2CCN(Cc3ccc(-c4ccccc4)cc3)CC2)Cc2c1ccc(C)c2O [Example 98, dihydrochloride]", "comparison-sign": "=", "pKi": 6.62}
{"compound": "Cc1ccc2c(c1O)C[C@@H](C1CCN(Cc3cc4ccccc4n3C)CC1)O[C@H]2CN [Example 88, dihydrochloride]", "comparison-sign": "=", "pKi": 6.96}
{"compound": "Cc1ccc2c(c1O)C[C@@H](C1CCN(Cc3cccnc3)CC1)O[C@H]2CN [Example 53, dihydrochloride]", "comparison-sign": "≤", "pKi": 5.00}
